Values compiled from patent US20260070922A1.

- assaySystem: Orexin type 1 (OX1R) receptor (Homo sapiens, UniProt O43613)
- Construct: expressed in transfected cells; host or cells: CHO cells (G418 selection)
- Sequence (O43613 whole entry): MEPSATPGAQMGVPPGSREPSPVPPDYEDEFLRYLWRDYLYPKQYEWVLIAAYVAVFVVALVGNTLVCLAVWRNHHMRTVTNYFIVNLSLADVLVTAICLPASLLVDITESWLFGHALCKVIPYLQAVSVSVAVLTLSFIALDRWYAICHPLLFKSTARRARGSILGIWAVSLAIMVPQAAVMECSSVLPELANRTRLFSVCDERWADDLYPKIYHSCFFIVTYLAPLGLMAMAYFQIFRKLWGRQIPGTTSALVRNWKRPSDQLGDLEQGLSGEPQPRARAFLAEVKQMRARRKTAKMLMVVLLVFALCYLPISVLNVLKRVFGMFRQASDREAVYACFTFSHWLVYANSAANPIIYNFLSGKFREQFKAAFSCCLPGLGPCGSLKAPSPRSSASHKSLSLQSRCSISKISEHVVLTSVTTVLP
- assayInfo: In vitro orexin antagonism assay: intracellular calcium measurement (FLIPR), orexin-A 3 nM as agonist
- Format: cell-based
- condition: second value of IC50/Kb cell
metricName: log10 of Kb (log10 of the value in nM)
The common logarithm of Kb in nM is what is listed.

The examples below pair each entry with its known result.
O=C(c1nc2ccccn2c1-c1ccccc1)N1CCC[C@H]1Cc1nc(-c2ccccn2)no1 :: 0.00
C[C@@]1(COc2ccc(C(F)(F)F)cn2)CCCN1C(=O)c1nn2c(c1-c1ccccc1)OCCC2 :: 1.59
O=C(c1nn2c(c1-c1ccccn1)OCCC2)N1CCC[C@H]1Cn1cc(-c2ccccn2)cn1 :: 0.85
O=C(c1c(-c2ccc(F)cc2)nn2ccccc12)N1CCC[C@H]1Cn1ccc(-c2ccc(F)cc2)n1 :: 0.00
O=C(c1nn2c(c1-c1ccccc1)COCC2)N1CCC[C@H]1Cn1ccc(-c2ccccc2)n1 :: 0.00
O=C(c1c(-c2ccccc2)nn2c1COCC2)N1CCC[C@H]1Cn1ccc(-c2ccc(F)cc2)n1 :: 1.15
O=C(c1nn2cccnc2c1-c1ccccn1)N1CCC[C@H]1Cc1nc(-c2ccc(F)cn2)no1 :: 0.60

Could you now consider this next compound?
input: Look up log10 of Kb: O=C(c1c(-c2ccccc2)nn2cccnc12)N1CCC[C@H]1Cn1ccc(-c2ccccc2)n1
output: 0.00

====

Please provide measured log10(Kb) for the entries that follow.
- assaySystem: Orexin type 1 (OX1R) receptor (Homo sapiens, UniProt O43613)
- Construct: expressed in transfected cells; host or cells: CHO cells (G418 selection)
- assayInfo: In vitro orexin antagonism assay: intracellular calcium measurement (FLIPR), orexin-A 3 nM as agonist
- Type: cell-based
- condition: second value of IC50/Kb cell
The common logarithm of Kb in nM is what is listed.

O=C(c1nn2c(c1-c1ccccc1)COCC2)N1CCC[C@H]1COc1ccc(C(F)(F)F)cn1 :: 0.00
O=C(c1nn2ccccc2c1-c1ccccn1)N1CCC[C@H]1Cc1nc(-c2ccccn2)no1 :: 0.30

I need log10(Kb) for every entry listed below, if you could help.
1. O=C(c1nn2cccnc2c1-c1ccccn1)N1C(Cn2ccc(-c3ccc(F)cn3)n2)C[C@@H]2C[C@@H]21 (stereo partly drawn)
2. O=C(c1c(-c2ccccc2)nn2c1COCC2)N1CCC[C@H]1Cn1cc(-c2ccccc2)cn1
3. C[C@@]1(Cn2ccc(-c3ccccn3)n2)CCCN1C(=O)c1nc2ccccn2c1-c1ccccc1
4. O=C(c1nn2c(c1-c1ccccc1)OCCC2)N1CCC[C@H]1Cn1ccc(-c2ccccn2)n1
5. O=C(c1c(-c2ncccn2)nn2ccccc12)N1[C@@H]2CC[C@@H](C2)[C@H]1COc1ccc(C(F)(F)F)cn1
6. O=C(c1c(-c2ccccn2)nn2ccccc12)N1CCC[C@H]1COc1ccc(C(F)(F)F)cn1
7. O=C(c1nn2c(c1-c1ccccc1)COCC2)N1[C@@H]2CC[C@@H](C2)[C@H]1COc1ccc(C(F)(F)F)cn1

output:
[0.48, 2.45, 2.08, 0.00, 1.60, 0.30, 2.71]

====

Please provide measured inhibition at 1 µM for the entries that follow.
- assaySystem: Orexin type 1 (OX1R) receptor (Homo sapiens, UniProt O43613)
- Construct: expressed in transfected cells; host or cells: CHO cells (G418 selection)
- assayInfo: In vitro orexin antagonism assay: intracellular calcium measurement (FLIPR), orexin-A 3 nM as agonist
- Format: cell-based
- condition: read-out: OX1R, % Inh. @ 1 uM
Give bare numbers, in %.

The examples below pair each entry with its known result.
C[C@@]1(COc2cnc(C(F)(F)F)cn2)CCCN1C(=O)c1nn2cccnc2c1-c1ccccc1 :: 82
O=C(c1c(-c2ccccc2)nc2ncccn12)N1CCC[C@H]1Cn1ccc(-c2ccccc2)n1 :: 54.8
O=C(c1nn2c(c1-c1ccccn1)COCC2)N1CCC[C@H]1Cn1cc(-c2ccccn2)cn1 :: 77
C[C@@]1(Cn2ccc(-c3ccccn3)n2)CCCN1C(=O)c1nc2ccccn2c1-c1ccccc1 :: 89
C[C@@]1(COc2cnc(C(F)(F)F)cn2)CCCN1C(=O)c1nc2ccccn2c1-c1ccccc1 :: 75

I need inhibition at 1 µM for every entry listed below, if you could help.
1. O=C(c1nc2ccccn2c1-c1ccccn1)N1CCC[C@H]1Cn1ccc(-c2ccc(F)cn2)n1
2. O=C(c1c(-c2ncccn2)nn2ccccc12)N1CCC[C@H]1Cn1cc(-c2ccc(F)cn2)cn1
3. O=C(c1nc2ccccn2c1-c1ccccc1)N1C2CCC1(COc1ccc(C(F)(F)F)cn1)CC2
4. C[C@@]1(COc2ccc(C(F)(F)F)cn2)CCCN1C(=O)c1c(-c2ccccc2)nn2cccnc12
5. C[C@@]1(COc2cnc(C(F)(F)F)cn2)CCCN1C(=O)c1nn2c(c1-c1ccccc1)COCC2
6. O=C(c1nn2cccnc2c1-c1ccccn1)N1CCC[C@H]1Cc1nc(-c2ccc(F)cn2)no1
7. C[C@@]1(COc2ccc(C(F)(F)F)cn2)CCCN1C(=O)c1nn2ccccc2c1-c1ccccc1

output:
1. 99
2. 53
3. 98
4. 93
5. 36
6. 94
7. 98

====

- assaySystem: human orexin-2 receptor (OX2R) (Homo sapiens)
- Construct: expressed in transfected cells; host or cells: CHO cells (G418 selection)
- assayInfo: In vitro orexin antagonism assay: intracellular calcium measurement (FLIPR), orexin-A 3 nM as agonist
- Type: cell-based
- condition: second value of IC50/Kb cell
metricName: Kb (nM)
Numbers only, in nM.

The examples below pair each entry with its known result.
O=C(c1nn2cccnc2c1-c1ccccc1)N1CCC[C@H]1Cn1ccc(-c2ccccc2)n1 :: 0.5
O=C(c1c(-c2ccccc2F)nc2ccccn12)N1CCC[C@H]1Cn1ccc(-c2ccc(F)cc2)n1 :: 4
O=C(c1c(-c2ccccc2)nc2ccc(F)cn12)N1CCC[C@H]1Cn1ccc(-c2ccc(F)cn2)n1 :: 160
O=C(c1nn2ccccc2c1-c1ccccc1)N1CCC[C@H]1Cc1nc(-c2ccc(F)cn2)no1 :: 26
O=C(c1c(-c2ccc(F)cc2)nc2ccccn12)N1CCC[C@H]1Cn1ccc(-c2ccc(F)cc2)n1 :: 10

I need Kb for every entry listed below, if you could help.
1. O=C(c1nc2ccccn2c1-c1ccccc1)N1[C@@H]2CC[C@@H](C2)[C@H]1COc1ccc(C(F)(F)F)cn1
2. O=C(c1c(-c2ccccc2)nc2cc(C(F)(F)F)ccn12)N1CC[C@H]1Cn1ccc(-c2ccc(F)cc2)n1
3. O=C(c1c(-c2ccccc2)nc2ccc(F)cn12)N1CCC[C@H]1Cn1cc(-c2ccccc2)cn1
4. O=C(c1nn2ccccc2c1-c1ccccn1)N1CCC[C@H]1Cn1cc(-c2ccccn2)cn1
5. O=C(c1nn2ccccc2c1-c1ccccc1)N1CCC[C@H]1CNc1ccc(C(F)(F)F)cn1
6. O=C(c1c(-c2ccccc2)nn2c1COCC2)N1CCC[C@H]1Cn1ccc(-c2ccc(F)cc2)n1

output:
3
110
28
45
5
107

====

- assaySystem: human orexin-2 receptor (OX2R) (Homo sapiens, UniProt O43614)
- Construct: expressed in transfected cells; host or cells: CHO cells (G418 selection)
- Sequence (O43614 1-444): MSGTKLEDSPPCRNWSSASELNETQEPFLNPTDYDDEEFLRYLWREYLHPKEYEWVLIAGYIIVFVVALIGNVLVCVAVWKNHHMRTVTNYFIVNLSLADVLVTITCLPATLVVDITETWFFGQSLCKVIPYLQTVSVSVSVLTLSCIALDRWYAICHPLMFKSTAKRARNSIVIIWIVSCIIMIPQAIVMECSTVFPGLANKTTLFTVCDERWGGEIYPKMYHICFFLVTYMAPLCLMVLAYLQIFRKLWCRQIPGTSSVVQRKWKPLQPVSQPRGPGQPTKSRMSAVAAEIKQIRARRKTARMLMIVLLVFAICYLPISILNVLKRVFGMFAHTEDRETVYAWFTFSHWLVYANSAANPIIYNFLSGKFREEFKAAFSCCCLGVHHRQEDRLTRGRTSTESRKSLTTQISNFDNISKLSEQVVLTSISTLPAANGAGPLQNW
- assayInfo: In vitro orexin antagonism assay: intracellular calcium measurement (FLIPR), orexin-A 3 nM as agonist
- Format: cell-based
- condition: second value of IC50/Kb cell
- Experimental: Antagonistic activities on both orexin receptors have been measured for each example compound using the following procedure: In Vitro Orexin Antagonism Measurement Assay: Intracellular Calcium Measurements: […] Within the Fluorescent Imaging Plate Reader (FLIPR Tetra, Molecular Devices), antagonists are added to the plate in a volume of 10 μL/well, incubated for 120 min and finally 10 μL/well of agonist is added. […] The calculated IC50values may fluctuate depending on the daily cellular assay performance. […]
Please provide measured log10 Kb for the entries that follow.
The common logarithm of Kb in nM is what is listed.

O=C(c1c(-c2ccccc2F)nn2ccccc12)N1CCC[C@H]1Cn1ccc(-c2ccc(F)cn2)n1 :: 0.48
O=C(c1c(-c2ncccn2)nn2ccccc12)N1CCC[C@H]1Cn1ccc(-c2ccccc2)n1 :: 1.08
O=C(c1c(-c2ccccc2)nn2ccccc12)N1CCCC[C@H]1CNc1ccc(C(F)(F)F)cn1 :: 1.00
O=C(c1c(-c2ccccc2F)nn2ccccc12)N1CCC[C@H]1Cn1cc(-c2ccccc2)cn1 :: 0.60
O=C(c1c(-c2ccccc2F)nn2ccccc12)N1CCC[C@H]1Cn1cc(-c2ccc(F)cn2)cn1 :: 1.00

I need log10 Kb for every entry listed below, if you could help.
1. O=C(c1c(-c2ccccn2)nn2ccccc12)N1CCC[C@H]1Cn1ccc(-c2ccccn2)n1
2. O=C(c1c(-c2ccccc2F)nn2ccccc12)N1CCC[C@H]1COc1ccc(C(F)(F)F)cn1
3. [2H]C1([2H])CC[C@@]([2H])(Cn2ccc(-c3ccc(F)cc3)n2)N1C(=O)c1c(-c2ccccc2)nc2ccc(F)cn12

output:
1: 1.04; 2: 1.58; 3: 1.81
